Settings: in methanol, 323.15 K
MEASUREMENT_KIND: solubility (mole fraction)
API note: the answer field is a bare number with no unit suffix.

QUERY: // query solubility (mole fraction) value for entry O=C(O)[C@@H]1CSCN1
RESULT: 0.000315

###

Details: in methanol, 303.15 K
MEASUREMENT_KIND: solubility (mole fraction)
Simply state the number, no unit and no words.

QUERY: // returns reported solubility (mole fraction) for input O=C(O)[C@@H]1CSCN1
RESULT: 0.000112

###

Conditions: in dichloromethane, 298.15 K
MEASUREMENT_KIND: solubility (mole fraction)
Reply briefly: the number, and no unit.

QUERY: Recorded solubility (mole fraction) of O=C(O)[C@@H]1CSCN1 , please.
RESULT: 0.000208
